System: CO-34 (NRS662), MRSA, SCCmec IV, bla +
TEST DESCRIPTION: MIC determination and potentiation assay (microdilution broth)
Type: cell-based
SETUP CONDITIONS: Staphylococcus aureus; CO-34 (NRS662); agent alone; read-out: MIC
Catalogue of MIC values
Report as a plain number; the unit µg/mL is understood.

CCO/N=C(\C(=O)N[C@@H]1C(=O)N2C(C(=O)[O-])=C(Sc3nc(-c4cc[n+](C)cc4)cs3)CS[C@H]12)c1nsc(N)n1 1
N#Cc1ccc2nc(SCB(O)O)n(Cc3ccc(C(F)(F)F)cc3C(F)(F)F)c2c1 16
C[C@@H](O)[C@H]1C(=O)N2C(C(=O)O)=C(S[C@@H]3CN[C@H](C(=O)N(C)C)C3)[C@H](C)[C@H]12 8

Item under review: `CO[C@@]1(NC(=O)Cc2cccs2)C(=O)N2C(C(=O)O)=C(COC(N)=O)CS[C@@H]21` . Reported MIC?
64

* * *

Test system: S. aureus NRS144pCN52RI-Venus
TEST DESCRIPTION: Bacterial growth inhibition (OD600) in the fluorescent screening assay
Type: cell-based, Staphylococcus aureus
SETUP CONDITIONS: compound at 100 mg/L^−1; OD600 after 2 h
Catalogue of % Inhibition of bacterial growth values
Report as a plain number; the unit % is understood.

Guide cases for % Inhibition of bacterial growth, answers given:
NCc1cn(Cc2ccc(C(F)(F)F)cc2C(F)(F)F)c(=S)[nH]1 90
COC(=O)c1ccc2nc(SCCCC#N)n(Cc3ccc(C(F)(F)F)cc3C(F)(F)F)c2c1 25
OCc1cn(Cc2ccc(C(F)(F)F)cc2C(F)(F)F)c(Cl)n1 0
OCCc1nc2ccccc2n1Cc1ccc(C(F)(F)F)cc1C(F)(F)F 40

Continue with the compound presented below.
Item under review: `O=S(=O)(Cl)c1nc(CO)cn1Cc1ccc(C(F)(F)F)cc1C(F)(F)F` . Reported % Inhibition of bacterial growth?
0

* * *

TEST DESCRIPTION: PK study, plasma and thighs
Format: in vivo, mice
SETUP CONDITIONS: mouse, plasma; mice; 25 mg·kg^−1 sc; read-out: concentration at 8 h in plasma
Method: Pharmacokinetics of Compound 4 and In Vivo Efficacy. We next evaluated the pharmacokinetics (PK) of compound 4 and its distribution to the thighs (sites of infection in the disease model) after a single subcutaneous dose at 25 mg·kg^−1 to mice. Animals. […] Plasma and thigh samples were analyzed on a Waters Acquity UPLC (Waters Corp., Milford, MA) coupled with a diode array detector with UV detection at 320-330 nm. […]
MEASUREMENT LABEL: concentration at 8 h (ng/mL)
Report as a plain number; the unit ng/mL is understood.

Item under review: N#Cc1ccc2nc(SCB(O)O)n(Cc3ccc(C(F)(F)F)cc3C(F)(F)F)c2c1 [Compound 4] . Reported concentration at 8 h?
3900

* * *

Catalogue of MIC values
Test system: FPR3757, MRSA, USA300 clone, SCCmec IV, bla +
TEST DESCRIPTION: MIC determination and potentiation assay (microdilution broth)
Assay type: cell-based
SETUP CONDITIONS: Staphylococcus aureus; FPR3757; agent alone; read-out: MIC
Report as a plain number; the unit µg/mL is understood.

COMPOUND	ASSAY TARGET	MIC [µg/mL]
CO[C@@]1(NC(=O)Cc2cccs2)C(=O)N2C(C(=O)O)=C(COC(N)=O)CS[C@@H]21 [FOX, cefoxitin]	FPR3757, MRSA, USA300 clone, SCCmec IV, bla +	64

Item under review: N#Cc1ccc2nc(SCB(O)O)n(Cc3ccc(C(F)(F)F)cc3C(F)(F)F)c2c1 [Compound 4] . Reported MIC?
16

Item under review: C[C@@H](O)[C@H]1C(=O)N2C(C(=O)O)=C(S[C@@H]3CN[C@H](C(=O)N(C)C)C3)[C@H](C)[C@H]12 [MEM, meropenem] . Reported MIC?
4

Item under review: CCO/N=C(\C(=O)N[C@@H]1C(=O)N2C(C(=O)[O-])=C(Sc3nc(-c4cc[n+](C)cc4)cs3)CS[C@H]12)c1nsc(N)n1 [CPT, ceftaroline] . Reported MIC?
0.5
